# Read-out: ATP-citrate lyase (ACLY), ACLY (gene 47)
# test-description: LTEA_HepaRG_ACLY: Life Technologies and Expression Analysis (LTEA) Assay for ATP-citrate lyase (ACLY) using HepaRG (AID 2283466)
# condition-details: mRNA level, 48 h; actives raise or lower the signal
Active and inactive are the calls of the source. How the source made its calls: active means hit-call score of the fitted dose curve at least 0.9, where 1 is the maximum; inactive means score below 0.9.
Outcome (select one): 1 (active), 0 (inactive)

Examples from the recorded data:
| given-smiles | label-class |
| --- | --- |
| O=C(N[C@H]1CN2CCC1CC2)c1ccc2c(c1)OCCO2 | 0 |
| N#Cc1cccnc1 | 0 |
| CCCCCCCCCCCCc1cccc(S(=O)(=O)O)c1 | 0 |
| Clc1cccc(Cl)c1 | 0 |
| O=C(O)C1(c2ccc3c(c2)OC[C@H](Cc2ccc(-c4ccccc4)cc2)[C@H]3O)CCCC1 | 1 |
| CC(C)O.CC(C)O.OCCN(CCO)CCO.OCCN(CCO)CCO.[Ti] | 0 |
| CN(C)C(=S)S | 0 |

Switching to the query record.
Query block: // outcome(item) with item = `COc1ccccc1N`
Result block: 0

###

# Read-out: Monokine induced gamma interferon (MIG), CXCL9 (gene 4283)
# test-description: BSK_SAg_MIG: BioMAP Diversity Plus: SAg Assay for Monokine induced gamma interferon (MIG) Biomarker Activity (AID 2283092)
# condition-details: primary human HUVEC with PBMC; actives raise or lower the signal
The source made the active and inactive calls. Rule for the calls: active = hit-call score of the fitted dose curve at least 0.9, where 1 is the maximum; inactive = score below 0.9.
Returns: one label drawn from true (1) = active, false (0) = inactive

Please review the entries below; each comes with its answer.
| molecule | label-class |
| --- | --- |
| O=C(Cc1ccccc1)OCCc1ccccc1 | false (0) |
| Oc1ccc(Cc2ccc(O)cc2)cc1 | false (0) |
| O=[N+]([O-])c1cccc2ccccc12 | false (0) |
| CCCCCCCCCCCCc1cccc(S(=O)(=O)O)c1 | false (0) |
| CCCCOC(=O)COC(=O)c1ccccc1C(=O)OCCCC | false (0) |
| Oc1c(Cl)cc(Cl)cc1Cl | false (0) |
| Nc1ccc(N)cc1 | false (0) |
| CC(C)N(C(=O)CCl)c1ccccc1 | true (1) |

Query block: What outcome does the record of this test show for `CN(C)C(=S)S` ?
Result block: false (0)

Query block: I would be grateful if you could indicate the recorded call for `CCN(CC)C(=O)C(Cl)=C(C)OP(=O)(OC)OC` .
Result block: false (0)

Query block: Which result was noted for this molecule in the test: `N#Cc1cccnc1`
Result block: false (0)

###

# test-description: BSK_3C_VCAM1: BioMAP Diversity Plus: 3C Assay for Vascular cell adhesion molecule 1 (VCAM1) Biomarker Activity (AID 2282999)
# condition-details: BioMAP 3C HUVEC, VCAM1 ELISA, cytokine-stimulated; actives raise or lower the signal
Active and inactive are the calls of the source. The calls were made as follows: active = hit-call score of the fitted dose curve at least 0.9, where 1 is the maximum; inactive = score below 0.9.
Your reply should match one of these outcome classes. label 1 = active, label 0 = inactive

For orientation, consider the following solved cases.
| molecule | label-class |
| --- | --- |
| Cc1cc(Cl)ccc1N | label 0 |
| Cc1ccc(OP(=O)(Oc2ccc(C)cc2C)Oc2ccc(C)cc2C)c(C)c1 | label 0 |
| CCCCCCCCCCCCN(C)C | label 0 |
| Cc1c([N+](=O)[O-])c(C)c([N+](=O)[O-])c(C(C)(C)C)c1[N+](=O)[O-] | label 1 |
| CC(C)=CC1C(C(=O)OCc2cccc(Oc3ccccc3)c2)C1(C)C (stereo unspecified) | label 0 |

Continue with the next molecule.
Query block: Could you kindly confirm the outcome this assay logged for `Cc1ccccc1OP(=O)(Oc1ccccc1)Oc1ccccc1` ?
Result block: label 1
